Target Or Test System: OCT3 (Homo sapiens)
Construct: expressed in transfected cells
Sequence (O75751 whole entry): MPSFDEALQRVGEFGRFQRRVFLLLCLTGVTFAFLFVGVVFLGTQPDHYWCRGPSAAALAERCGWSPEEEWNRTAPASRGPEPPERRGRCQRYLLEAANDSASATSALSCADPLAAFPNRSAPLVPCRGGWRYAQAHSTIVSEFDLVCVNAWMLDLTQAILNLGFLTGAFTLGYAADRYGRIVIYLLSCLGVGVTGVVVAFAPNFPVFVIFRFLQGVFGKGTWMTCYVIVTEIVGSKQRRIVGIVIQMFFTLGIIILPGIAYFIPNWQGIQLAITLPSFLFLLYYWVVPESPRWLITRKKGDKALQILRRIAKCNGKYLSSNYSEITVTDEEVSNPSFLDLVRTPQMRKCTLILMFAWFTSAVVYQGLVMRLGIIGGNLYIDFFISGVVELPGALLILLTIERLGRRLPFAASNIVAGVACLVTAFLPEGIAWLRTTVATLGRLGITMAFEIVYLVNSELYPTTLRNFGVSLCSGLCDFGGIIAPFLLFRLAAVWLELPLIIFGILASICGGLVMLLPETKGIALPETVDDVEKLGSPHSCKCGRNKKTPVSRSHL
Assay Overview: [3H]-MPP+ uptake inhibition assay in HEK-293 cells
Assay type: cell-based
Particulars: HEK cells stably expressing human OCT3; 10 min uptake

- Molecule: "C[N+](C)(C)Cc1ccc(O)c(/C=N/NC(=S)Nc2ccccc2)c1 [[H2L^Ph]Cl]"
  IC50: "27.8 µM"
- Molecule: "C[N+](C)(C)Cc1ccc(O)c(/C=N/NC(N)=S)c1 [[H2L^H]Cl]"
  IC50: "105 µM"
- Molecule: "CCNC(=S)N/N=C/c1cc(C[N+](C)(C)C)ccc1O [[H2L^Et]Cl]"
  IC50: "63.1 µM"
- Molecule: "CNC(=S)N/N=C/c1cc(C[N+](C)(C)C)ccc1O [[H2L^Me]Cl]"
  IC50: "103 µM"
